- Test system: Staphylococcus aureus
- Assay Details: In vitro antibacterial activity against Methicillin-resistant Staphylococcus aureus (MRSA) by agar disc diffusion assay method with respect to imipenem
- Assay type: functional
Value Type: Relative potency

Recorded Relative potency (compound `C[C@@H](O)[C@H]1C(=O)N2C(C(=O)[O-])=C(c3ccc4c5cccnc5n(C)c4c3)C[C@H]12.[Na+]` ): 4.9 fold

###

- Tested on: Enterococcus sp.
- Assay Details: In vitro antibacterial against Enterococcus species. by agar disc diffusion assay method with respect to imipenem
- Assay type: functional
Value Type: Relative potency (fold)
Kindly provide the numeric value in fold only, without the unit symbol.

- Chemical Smiles: "C[C@@H]([O-])[C@H]1C(=O)N2C(C(=O)[O-])=C(c3ccc4c(c3)c3c(ccc[n+]3C)n4C)C[C@H]12.[Na+]"
  Tgt: "Enterococcus sp."
  Relative potency, fold: 2.5
- Chemical Smiles: "C[C@@H](O)[C@H]1C(=O)N2C(C(=O)[O-])=C(c3ccc4c(c3)c3ncccc3n4C)C[C@H]12.[Na+]"
  Tgt: "Enterococcus sp."
  Relative potency, fold: 1.2

GET /value?item= `C[C@@H]([O-])[C@H]1C(=O)N2C(C(=O)[O-])=C(c3ccc4c(c3)c3ccc[n+](C)c3n4C)C[C@H]12.[Na+]` &field=Relative potency returns 3.9

// field: Relative potency; key: `C[C@@H](O)[C@H]1C(=O)N2C(C(=O)[O-])=C(c3ccc4c(c3)c3cccnc3n4C)C[C@H]12.[Na+]` ; value = 2.1

The measured Relative potency associated with `C[C@@H]([O-])[C@H]1C(=O)N2C(C(=O)[O-])=C(c3ccc4c(c3)c3cc[n+](C)cc3n4C)C[C@H]12.[Na+]` reads 3.8

Briefly, Relative potency measured for `C[C@@H]([O-])[C@H]1C(=O)N2C(C(=O)[O-])=C(c3ccc4[nH]c5c[n+](C)ccc5c4c3)C[C@H]12.[Na+]` : 2.8

Form field Relative potency, entry `C[C@@H](O)[C@H]1C(=O)N2C(C(=O)[O-])=C(c3cccc4c3c3cccnc3n4C)C[C@H]12.[Na+]` : 1.4

###

- Tested on: Enterococcus sp.
- Assay Details: In vitro antibacterial against Enterococcus species. by agar disc diffusion assay method with respect to imipenem
- Type: functional
Value Type: Relative potency (fold)
# output: bare number, implied unit fold

- Chemical Smiles: "CC[n+]1cccc2c3cc(C4=C(C(=O)[O-])N5C(=O)[C@H]([C@@H](C)[O-])[C@H]5C4)ccc3n(C)c21.[Na+]"
  Measurement Units: "fold"
  Relative potency: 3.7
- Chemical Smiles: "C[C@@H](O)[C@H]1C(=O)N2C(C(=O)[O-])=C(c3ccc4c(c3)c3cnccc3n4C)C[C@H]12.[Na+]"
  Measurement Units: "fold"
  Relative potency: 4
- Chemical Smiles: "C[C@@H](O)[C@H]1C(=O)N2C(C(=O)[O-])=C(c3ccc4c(c3)c3c[n+](C)ccc3n4C)C[C@H]12"
  Measurement Units: "fold"
  Relative potency: 3.7

Consider the record given below.
Item: `C[C@@H](O)[C@H]1C(=O)N2C(C(=O)[O-])=C(c3ccc4c5cccnc5n(C)c4c3)C[C@H]12.[Na+]` | Relative potency: 1.5

###

- Test system: Enterobacter sp.
- Assay Details: In vitro antibacterial against Enterobacter species. by agar disc diffusion assay method with respect to imipenem
- Format: functional
Value Type: Relative potency (fold)
The response must be a number in fold with no trailing unit.

- Chemical Smiles: "C[C@@H](O)[C@H]1C(=O)N2C(C(=O)[O-])=C(c3ccc4c(c3)c3ncccc3n4C)C[C@H]12.[Na+]"
  Tgt: "Enterobacter sp."
  Value Type: "Relative potency"
  Measurement Units: "fold"
  Assay Result: 0.065

// Relative potency value for `CC[n+]1cccc2c3cc(C4=C(C(=O)[O-])N5C(=O)[C@H]([C@@H](C)[O-])[C@H]5C4)ccc3n(C)c21.[Na+]` : 1.4

Sure, the documented Relative potency for `C[C@@H]([O-])[C@H]1C(=O)N2C(C(=O)[O-])=C(c3ccc4[nH]c5c[n+](C)ccc5c4c3)C[C@H]12.[Na+]` is 7.7

Value of Relative potency reported for the compound `C[C@@H](O)[C@H]1C(=O)N2C(C(=O)[O-])=C(c3ccc4c(c3)c3cnccc3n4C)C[C@H]12.[Na+]` is 0.98

Reported Relative potency for `C[C@@H](O)[C@H]1C(=O)N2C(C(=O)[O-])=C(c3ccc4c(c3)c3c[n+](C)ccc3n4C)C[C@H]12` was 0.94

###

- Test system: Staphylococcus aureus
- Assay Details: In vitro antibacterial activity against Methicillin-resistant Staphylococcus aureus (MRSA) by agar disc diffusion assay method with respect to imipenem
- Format: functional
Value Type: Relative potency (fold)
Kindly answer with a numeric value in fold, unit omitted.

Solved entries (count: 2):
- Chemical Smiles: "C[C@@H]([O-])[C@H]1C(=O)N2C(C(=O)[O-])=C(c3ccc4c(c3)c3cc[n+](C)cc3n4C)C[C@H]12.[Na+]"
  Tgt: "Staphylococcus aureus"
  Value Type: "Relative potency"
  Assay Result: 23
- Chemical Smiles: "C[C@@H](O)[C@H]1C(=O)N2C(C(=O)[O-])=C(c3ccc4c(c3)c3cnccc3n4C)C[C@H]12.[Na+]"
  Tgt: "Staphylococcus aureus"
  Value Type: "Relative potency"
  Assay Result: 11

Here is the next item to consider.
Bench note, Staphylococcus aureus: entry `C[C@@H]([O-])[C@H]1C(=O)N2C(C(=O)[O-])=C(c3ccc4[nH]c5c[n+](C)ccc5c4c3)C[C@H]12.[Na+]` , its Relative potency = 28

###

- Test system: Enterobacter sp.
- Assay Details: In vitro antibacterial against Enterobacter species. by agar disc diffusion assay method with respect to imipenem
- Assay type: functional
Criterion: Relative potency strictly under 1 fold. Met: Met. Not met: Not met.

- Chemical Smiles: "C[C@@H]([O-])[C@H]1C(=O)N2C(C(=O)[O-])=C(c3ccc4c(c3)c3cc[n+](C)cc3n4C)C[C@H]12.[Na+]"
  Tgt: "Enterobacter sp."
  Assigned Class: "Not met"
- Chemical Smiles: "C[C@@H]([O-])[C@H]1C(=O)N2C(C(=O)[O-])=C(c3ccc4c(c3)c3ccc[n+](C)c3n4C)C[C@H]12.[Na+]"
  Tgt: "Enterobacter sp."
  Assigned Class: "Not met"
- Chemical Smiles: "C[C@@H](O)[C@H]1C(=O)N2C(C(=O)[O-])=C(c3cccc4c3c3cccnc3n4C)C[C@H]12.[Na+]"
  Tgt: "Enterobacter sp."
  Assigned Class: "Met"
- Chemical Smiles: "C[C@@H](O)[C@H]1C(=O)N2C(C(=O)[O-])=C(c3ccc4c5cccnc5n(C)c4c3)C[C@H]12.[Na+]"
  Tgt: "Enterobacter sp."
  Assigned Class: "Met"
- Chemical Smiles: "C[C@@H]([O-])[C@H]1C(=O)N2C(C(=O)[O-])=C(c3ccc4c(c3)c3c(ccc[n+]3C)n4C)C[C@H]12.[Na+]"
  Tgt: "Enterobacter sp."
  Assigned Class: "Not met"

Please determine if `C[C@@H](O)[C@H]1C(=O)N2C(C(=O)[O-])=C(c3ccc4c(c3)c3cccnc3n4C)C[C@H]12.[Na+]` is below 1 fold in terms of Relative potency.
Met

###

Readings of Relative potency for the listed molecules
- System: Staphylococcus aureus
- Assay Details: In vitro antibacterial activity against Methicillin-resistant Staphylococcus aureus (MRSA) by agar disc diffusion assay method with respect to imipenem
- Type: functional
The reply should be a number in fold, with the unit left off.

- Chemical Smiles: "C[C@@H](O)[C@H]1C(=O)N2C(C(=O)[O-])=C(c3ccc4c(c3)c3c[n+](C)ccc3n4C)C[C@H]12"
  Relative potency, fold: 14

For `C[C@@H]([O-])[C@H]1C(=O)N2C(C(=O)[O-])=C(c3ccc4c(c3)c3ccc[n+](C)c3n4C)C[C@H]12.[Na+]` the molecule record lists Relative potency as 30

Consider `CC[n+]1cccc2c3cc(C4=C(C(=O)[O-])N5C(=O)[C@H]([C@@H](C)[O-])[C@H]5C4)ccc3n(C)c21.[Na+]` . Its measured Relative potency is 21

Given item `C[C@@H](O)[C@H]1C(=O)N2C(C(=O)[O-])=C(c3ccc4c(c3)c3cccnc3n4C)C[C@H]12.[Na+]` , the value recorded as its Relative potency is 8

For this molecule ( `C[C@@H](O)[C@H]1C(=O)N2C(C(=O)[O-])=C(c3ccc4c(c3)c3ncccc3n4C)C[C@H]12.[Na+]` ), measured Relative potency is 5.3

Given item `C[C@@H](O)[C@H]1C(=O)N2C(C(=O)[O-])=C(c3cccc4c3c3cccnc3n4C)C[C@H]12.[Na+]` , the value recorded as its Relative potency is 13

Reported Relative potency for `C[C@@H]([O-])[C@H]1C(=O)N2C(C(=O)[O-])=C(c3ccc4c(c3)c3c(ccc[n+]3C)n4C)C[C@H]12.[Na+]` was 12

This collection of values is drawn from ChEMBL document CHEMBL1128873.
